These data points were gathered from the Human Domainome abundance scans (Beltran et al. 2025).

B1: REST corepressor 3, residues 87 to 134; numbered along this chain, Q9P2K3 (parent)
chain: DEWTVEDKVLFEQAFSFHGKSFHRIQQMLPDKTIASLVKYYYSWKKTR

# Variants of: B1
# measurement.notes: abundance fitness (aPCA) (normalised: wild type 0, dead -1); higher = more abundant; growth selection in yeast, the domain comes from the species named
# measurement.conditions: Homo sapiens
// Not met strictly below -0.6 in abundance fitness; Met otherwise

-- ask Hi, just wondering whether T47E shows abundance fitness of -0.6 or higher.
-- reply Met

-- ask # iterate: T33L
-- reply Not met

-- ask # iterate: I25S
-- reply Not met

-- ask # iterate: D31E
-- reply Met

-- ask # iterate: A35W
-- reply Met

-- ask # iterate: H23E
-- reply Met

-- ask # iterate: S21R
-- reply Met

-- ask # iterate: D31K
-- reply Met

-- ask # iterate: S16T
-- reply Met

-- ask # iterate: I25T
-- reply Not met

-- ask # iterate: M28H
-- reply Met

-- ask # iterate: H18Q
-- reply Not met

-- ask # iterate: L29K
-- reply Not met

-- ask # iterate: R48G
-- reply Met

-- ask # iterate: S16A
-- reply Met

-- ask # iterate: D7V
-- reply Not met

-- ask # iterate: T33N
-- reply Met

-- ask # iterate: Y41G
-- reply Not met

-- ask # iterate: K20M
-- reply Met

-- ask # iterate: L29Q
-- reply Not met

-- ask # iterate: T33V
-- reply Not met

-- ask # iterate: G19D
-- reply Met

-- ask # iterate: S36R
-- reply Met

-- ask # iterate: K46H
-- reply Met

-- ask # iterate: Y42C
-- reply Met

-- ask # iterate: H23Q
-- reply Met

-- ask # iterate: S16W
-- reply Met

-- ask # iterate: F17M
-- reply Met

-- ask # iterate: V9E
-- reply Met

-- ask # iterate: F11E
-- reply Not met

-- ask # iterate: S16L
-- reply Met

-- ask # iterate: K45M
-- reply Met
